Taken from patent US20220184120A1.

Biological target: T1, N-10 peptide (PSMGFR minus 10 amino acids from the N-terminus)
T1 construct: also called N-10 PSMGFR; PSMGFR N-10
T1 peptide: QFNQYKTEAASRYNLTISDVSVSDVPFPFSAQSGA
Assay: ELISA
measurement-name: binding result

binder="1E4 mouse monoclonal antibody (antibody, V domains shown, raised against N+20/C-27; also called MN-1E4; N+20/C-27 antibody 1E4) VH: QVQLQQSGAELVRPGSSVKISCKASGYAFSTYWMNWVKQRPGQGLEWIGQIYPGDSDTNYNGKFKGKATLTADKSSNTAYMQLSSLTSEDSAVFFCARGNHASMDYWGQGTSVTVSS VL: DVVMTQTPLSLPVSLGDQASISCRSSQSLVHSNGNTYLHWYLQKPGQSPKLLIYKVSNRFSGVPDRFSGSGSGTDFTLKISRVEAEDLGVYFCSQKTHVPWTFGGGTKLEIK" measurement_name="binding result" value_observed=binds
binder="3C2B1 mouse monoclonal antibody (antibody, V domains shown, raised against PSMGFR; also called MN-3C2B1; anti-PSMGFR antibody 3C2B1) VH: EVMLVESGGGLVKPGGSLKLSCAASGITFSTYTMSWVRQTPEKRLEWVATISTGGDKTYYSDSVKGRFTISRDNAKNNLYLQMSSLRSEDTALYYCARGTTAMYYYAMDYWGQGTSVTVSS VL: DIVLTQSPASLAVSLGQRATISCRASKSISTSDYNYIHWYQQKPGQPPKLLIYLASNLESGVPARFSGSGSGTDFTLNIHPVEEEDAATYYCQHSRELPLTFGAGTKLELK" measurement_name="binding result" value_observed=binds
